Assay: Biodistribution of 99mTc complexes in rats
Format: in vivo, Australian Albino Wistar Rats
Conditions: rat, tail, rats, 3 min, read-out: biodistribution tail
For each record, write down the corresponding tissue uptake at 0.05 h.
# unit: %ID/g | format: bare number

IN: Answer with reported tissue uptake at 0.05 h of `CC(C)(C)c1ccc(O)c(NC(=O)CN(CCN(CC(=O)O)CC(=O)Nc2cc(C(C)(C)C)ccc2O)CC(=O)O)c1`
OUT: 0.39

IN: Answer with reported tissue uptake at 0.05 h of `O=C(O)CN(CCN(CC(=O)O)CC(=O)Nc1ccc(Cl)cc1O)CC(=O)Nc1ccc(Cl)cc1O`
OUT: 0.64

IN: Answer with reported tissue uptake at 0.05 h of `O=C(O)CN(CCN(CC(=O)O)CC(=O)Nc1cc([N+](=O)[O-])ccc1O)CC(=O)Nc1cc([N+](=O)[O-])ccc1O`
OUT: 0.63

IN: Answer with reported tissue uptake at 0.05 h of `Nc1ccc(O)c(NC(=O)CN(CCN(CC(=O)O)CC(=O)Nc2cc(N)ccc2O)CC(=O)O)c1`
OUT: 0.17

IN: Answer with reported tissue uptake at 0.05 h of `O=C(O)CN(CCN(CC(=O)O)CC(=O)Nc1ccccc1O)CC(=O)Nc1ccccc1O`
OUT: 0.8

###

Test: Biodistribution of 99mTc complexes in rats
Format: in vivo, Australian Albino Wistar Rats
Details: rat, skin, rats, 30 sec, read-out: biodistribution skin
For each record, write down the corresponding tissue uptake at 0.5 min.
# unit: %ID/g | format: bare number

IN: Answer with reported tissue uptake at 0.5 min of Nc1ccc(O)c(NC(=O)CN(CCN(CC(=O)O)CC(=O)Nc2cc(N)ccc2O)CC(=O)O)c1 [Compound 5]
OUT: 0.31

IN: Answer with reported tissue uptake at 0.5 min of CC(C)(C)c1ccc(O)c(NC(=O)CN(CCN(CC(=O)O)CC(=O)Nc2cc(C(C)(C)C)ccc2O)CC(=O)O)c1 [Compound 4]
OUT: 0.53

IN: Answer with reported tissue uptake at 0.5 min of O=C(O)CN(CCN(CC(=O)O)CC(=O)Nc1ccc(Cl)cc1O)CC(=O)Nc1ccc(Cl)cc1O [Compound 2]
OUT: 0.29

IN: Answer with reported tissue uptake at 0.5 min of O=C(O)CN(CCN(CC(=O)O)CC(=O)Nc1cc([N+](=O)[O-])ccc1O)CC(=O)Nc1cc([N+](=O)[O-])ccc1O [Compound 3]
OUT: 0.49

IN: Answer with reported tissue uptake at 0.5 min of O=C(O)CN(CCN(CC(=O)O)CC(=O)Nc1ccccc1O)CC(=O)Nc1ccccc1O [Compound 1]
OUT: 0.37

###

Experiment: Biodistribution of 99mTc complexes in rats
Type: in vivo, Australian Albino Wistar Rats
Details: rat, thymus, rats, 1 min, read-out: biodistribution thymus
Test readout: tissue uptake at 1 min (%ID/g)
# unit: %ID/g | format: bare number

IN: Answer with reported tissue uptake at 1 min of `O=C(O)CN(CCN(CC(=O)O)CC(=O)Nc1ccc(Cl)cc1O)CC(=O)Nc1ccc(Cl)cc1O`
OUT: 0.37

IN: Answer with reported tissue uptake at 1 min of `Nc1ccc(O)c(NC(=O)CN(CCN(CC(=O)O)CC(=O)Nc2cc(N)ccc2O)CC(=O)O)c1`
OUT: 0.56

IN: Answer with reported tissue uptake at 1 min of `O=C(O)CN(CCN(CC(=O)O)CC(=O)Nc1cc([N+](=O)[O-])ccc1O)CC(=O)Nc1cc([N+](=O)[O-])ccc1O`
OUT: 0.34

IN: Answer with reported tissue uptake at 1 min of `CC(C)(C)c1ccc(O)c(NC(=O)CN(CCN(CC(=O)O)CC(=O)Nc2cc(C(C)(C)C)ccc2O)CC(=O)O)c1`
OUT: 0.49

IN: Answer with reported tissue uptake at 1 min of `O=C(O)CN(CCN(CC(=O)O)CC(=O)Nc1ccccc1O)CC(=O)Nc1ccccc1O`
OUT: 0.35

###

Experiment: Biodistribution of 99mTc complexes in mice
Type: in vivo, Balb/c mice
Details: 1 min
Test readout: biodistribution lungs
Just the number plus its unit, please.

IN: Answer with reported biodistribution lungs of `CC(C)(C)c1ccc(O)c(NC(=O)CN(CCN(CC(=O)O)CC(=O)Nc2cc(C(C)(C)C)ccc2O)CC(=O)O)c1`
OUT: 1.29 % Injected dose

IN: Answer with reported biodistribution lungs of `Cc1cc(C)c(O)c(NC(=O)CN(CCN(CC(=O)O)CC(=O)Nc2cc(C)cc(C)c2O)CC(=O)O)c1`
OUT: 1.71 % Injected dose

IN: Answer with reported biodistribution lungs of `O=C(O)CN(CCN(CC(=O)O)CC(=O)Nc1ccccc1O)CC(=O)Nc1ccccc1O`
OUT: 1.54 % Injected dose

IN: Answer with reported biodistribution lungs of `O=C(O)CN(CCN(CC(=O)O)CC(=O)Nc1ccc(Cl)cc1O)CC(=O)Nc1ccc(Cl)cc1O`
OUT: 1.36 % Injected dose

###

Experiment: Biodistribution of 67Ga complexes in mice
Assay type: in vivo, balb/c mice
Details: 120 min
Test readout: biodistribution skin (% ID)
# unit: % ID | format: bare number

IN: Answer with reported biodistribution skin of `Cc1cc(C)c(O)c(NC(=O)CN(CCN(CC(=O)O)CC(=O)Nc2cc(C)cc(C)c2O)CC(=O)O)c1`
OUT: 0.10

IN: Answer with reported biodistribution skin of `O=C(O)CN(CCN(CC(=O)O)CC(=O)Nc1ccc(Cl)cc1O)CC(=O)Nc1ccc(Cl)cc1O`
OUT: 0.17

IN: Answer with reported biodistribution skin of `O=C(O)CN(CCN(CC(=O)O)CC(=O)Nc1ccccc1O)CC(=O)Nc1ccccc1O`
OUT: 0.24

IN: Answer with reported biodistribution skin of `CC(C)(C)c1ccc(O)c(NC(=O)CN(CCN(CC(=O)O)CC(=O)Nc2cc(C(C)(C)C)ccc2O)CC(=O)O)c1`
OUT: 0.15

###

Experiment: Biodistribution of 67Ga complexes in mice
Type: in vivo, balb/c mice
Conditions: 3 min
Test readout: biodistribution bone (% ID)
# unit: % ID | format: bare number

IN: Answer with reported biodistribution bone of `O=C(O)CN(CCN(CC(=O)O)CC(=O)Nc1ccccc1O)CC(=O)Nc1ccccc1O`
OUT: 3.30

IN: Answer with reported biodistribution bone of `O=C(O)CN(CCN(CC(=O)O)CC(=O)Nc1ccc(Cl)cc1O)CC(=O)Nc1ccc(Cl)cc1O`
OUT: 2.82

IN: Answer with reported biodistribution bone of `Cc1cc(C)c(O)c(NC(=O)CN(CCN(CC(=O)O)CC(=O)Nc2cc(C)cc(C)c2O)CC(=O)O)c1`
OUT: 2.41

IN: Answer with reported biodistribution bone of `CC(C)(C)c1ccc(O)c(NC(=O)CN(CCN(CC(=O)O)CC(=O)Nc2cc(C(C)(C)C)ccc2O)CC(=O)O)c1`
OUT: 1.31

###

For each record, write down the corresponding biodistribution tail.
Assay: Biodistribution of 99mTc complexes in mice
Format: in vivo, Balb/c mice
Details: 3 min
# unit: % Injected dose | format: bare number

IN: Answer with reported biodistribution tail of O=C(O)CN(CCN(CC(=O)O)CC(=O)Nc1ccc(Cl)cc1O)CC(=O)Nc1ccc(Cl)cc1O [Compound 2]
OUT: 6.89

IN: Answer with reported biodistribution tail of Cc1cc(C)c(O)c(NC(=O)CN(CCN(CC(=O)O)CC(=O)Nc2cc(C)cc(C)c2O)CC(=O)O)c1 [Compound 6]
OUT: 7.37

IN: Answer with reported biodistribution tail of CC(C)(C)c1ccc(O)c(NC(=O)CN(CCN(CC(=O)O)CC(=O)Nc2cc(C(C)(C)C)ccc2O)CC(=O)O)c1 [Compound 4]
OUT: 2.02

IN: Answer with reported biodistribution tail of O=C(O)CN(CCN(CC(=O)O)CC(=O)Nc1ccccc1O)CC(=O)Nc1ccccc1O [Compound 1]
OUT: 1.58

###

Test: Biodistribution of compound No. 6 in mice (Table 6)
Assay type: in vivo, Balb/c mice
Settings: mouse, stomach, 3 min, read-out: biodistribution stomach
Test readout: tissue uptake at 0.05 h (%ID/g)
# unit: %ID/g | format: bare number

IN: Answer with reported tissue uptake at 0.05 h of `Cc1cc(C)c(O)c(NC(=O)CN(CCN(CC(=O)O)CC(=O)Nc2cc(C)cc(C)c2O)CC(=O)O)c1`
OUT: 1.78

###

Assay: Biodistribution of 99mTc complexes in mice
Type: in vivo, Balb/c mice
Details: 5 min
For each record, write down the corresponding biodistribution tail.
# unit: % Injected dose | format: bare number

IN: Answer with reported biodistribution tail of `O=C(O)CN(CCN(CC(=O)O)CC(=O)Nc1ccc(Cl)cc1O)CC(=O)Nc1ccc(Cl)cc1O`
OUT: 30.12

IN: Answer with reported biodistribution tail of `CC(C)(C)c1ccc(O)c(NC(=O)CN(CCN(CC(=O)O)CC(=O)Nc2cc(C(C)(C)C)ccc2O)CC(=O)O)c1`
OUT: 4.63

IN: Answer with reported biodistribution tail of `Cc1cc(C)c(O)c(NC(=O)CN(CCN(CC(=O)O)CC(=O)Nc2cc(C)cc(C)c2O)CC(=O)O)c1`
OUT: 7.64

IN: Answer with reported biodistribution tail of `O=C(O)CN(CCN(CC(=O)O)CC(=O)Nc1ccccc1O)CC(=O)Nc1ccccc1O`
OUT: 3.76
